# MEASURED_TARGET: SMARCA4 (Homo sapiens, UniProt P51532)
# Construct: SMARCA2 and SMARCA4 protein degradation in MV4-11 cells; endogenous in cells; host or cells: MV4-11
# Sequence (P51532 whole entry): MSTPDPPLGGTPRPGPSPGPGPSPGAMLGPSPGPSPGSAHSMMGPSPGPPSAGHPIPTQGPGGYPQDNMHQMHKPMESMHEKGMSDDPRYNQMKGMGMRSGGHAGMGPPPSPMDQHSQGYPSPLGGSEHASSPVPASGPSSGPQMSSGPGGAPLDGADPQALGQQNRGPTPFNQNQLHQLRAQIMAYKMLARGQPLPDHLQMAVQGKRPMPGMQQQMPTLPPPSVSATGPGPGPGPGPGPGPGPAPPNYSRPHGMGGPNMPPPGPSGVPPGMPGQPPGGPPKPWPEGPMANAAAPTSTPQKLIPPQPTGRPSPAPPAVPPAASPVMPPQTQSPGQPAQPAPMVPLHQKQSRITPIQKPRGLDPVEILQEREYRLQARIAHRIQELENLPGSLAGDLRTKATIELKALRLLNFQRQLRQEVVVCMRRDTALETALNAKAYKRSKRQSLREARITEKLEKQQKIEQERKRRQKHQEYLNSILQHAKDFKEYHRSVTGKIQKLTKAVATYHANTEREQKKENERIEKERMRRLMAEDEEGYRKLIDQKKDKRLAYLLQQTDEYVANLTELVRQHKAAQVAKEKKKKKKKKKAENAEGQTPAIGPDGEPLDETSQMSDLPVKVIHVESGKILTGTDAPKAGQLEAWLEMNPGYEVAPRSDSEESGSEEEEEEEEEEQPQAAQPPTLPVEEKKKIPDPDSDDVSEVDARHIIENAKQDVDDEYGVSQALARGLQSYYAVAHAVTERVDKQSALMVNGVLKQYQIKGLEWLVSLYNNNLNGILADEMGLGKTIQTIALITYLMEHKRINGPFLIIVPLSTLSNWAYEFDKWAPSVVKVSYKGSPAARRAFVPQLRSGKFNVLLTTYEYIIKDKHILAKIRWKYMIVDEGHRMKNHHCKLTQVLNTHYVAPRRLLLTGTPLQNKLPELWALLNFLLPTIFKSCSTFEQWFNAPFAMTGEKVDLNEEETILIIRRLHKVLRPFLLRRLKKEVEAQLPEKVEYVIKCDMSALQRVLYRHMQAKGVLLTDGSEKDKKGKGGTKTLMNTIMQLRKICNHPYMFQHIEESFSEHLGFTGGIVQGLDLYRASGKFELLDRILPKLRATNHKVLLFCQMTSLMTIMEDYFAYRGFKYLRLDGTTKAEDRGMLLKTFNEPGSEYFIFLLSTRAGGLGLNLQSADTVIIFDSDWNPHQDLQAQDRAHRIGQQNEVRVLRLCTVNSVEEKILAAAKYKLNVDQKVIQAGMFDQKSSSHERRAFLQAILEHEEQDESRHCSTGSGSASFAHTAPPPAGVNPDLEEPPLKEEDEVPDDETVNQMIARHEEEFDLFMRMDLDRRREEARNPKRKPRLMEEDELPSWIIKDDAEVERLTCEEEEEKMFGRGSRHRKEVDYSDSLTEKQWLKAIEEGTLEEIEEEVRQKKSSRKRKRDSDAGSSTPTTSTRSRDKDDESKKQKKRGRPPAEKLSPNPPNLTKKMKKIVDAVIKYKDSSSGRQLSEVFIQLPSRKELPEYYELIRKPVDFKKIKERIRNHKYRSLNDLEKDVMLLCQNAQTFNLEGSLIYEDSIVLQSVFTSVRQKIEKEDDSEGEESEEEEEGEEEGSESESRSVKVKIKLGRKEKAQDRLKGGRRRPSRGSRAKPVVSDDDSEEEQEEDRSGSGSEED
# EXPERIMENT_SUMMARY: SMARCA4 Western blot MV4-11 degradation
# Assay type: cell-based
# STATED_CONDITIONS: MV4-11, MV4-11 cells, 24 h; read-out: SMARCA4 MSD MV411 degradation 24 h: average Dmax %
Below is a list of entries, each paired with its recorded Dmax value.

- COMPOUND: "Cc1ncsc1-c1ccc(CNC(=O)[C@@H]2C[C@@H](O)CN2C(=O)[C@@H](NC(=O)[C@H]2CC3(C2)C[C@H](N2CCC(Oc4ccc(N5C6CCC5CN(c5cc(-c7ccccc7O)nnc5N)C6)cn4)CC2)C3)C(C)(C)C)cc1 (some centres unmarked) [I-39]"
  QUANTITY: "Dmax"
  MEASURED_RESULT: "> 90%"

We next turn to a different compound, shown below.
Any idea what Dmax came out for Cc1ncsc1-c1ccc(C2(NC(=O)[C@@H]3C[C@@H](O)CN3C(=O)[C@@H](NC(=O)[C@H]3CC4(C3)C[C@H](N3CCC(c5cnc(N6C7CCC6CN(c6cc(-c8ccccc8O)nnc6N)C7)nc5)CC3)C4)C(C)(C)C)CC2)cc1 (single isomer, unassigned) [I-3] on SMARCA4 (Homo sapiens, UniProt P51532)? 70 to 90%

====

In this section we review reported Dmax values for a set of compounds.
# MEASURED_TARGET: SMARCA2 (Homo sapiens, UniProt P51531)
# Sequence (P51531 whole entry): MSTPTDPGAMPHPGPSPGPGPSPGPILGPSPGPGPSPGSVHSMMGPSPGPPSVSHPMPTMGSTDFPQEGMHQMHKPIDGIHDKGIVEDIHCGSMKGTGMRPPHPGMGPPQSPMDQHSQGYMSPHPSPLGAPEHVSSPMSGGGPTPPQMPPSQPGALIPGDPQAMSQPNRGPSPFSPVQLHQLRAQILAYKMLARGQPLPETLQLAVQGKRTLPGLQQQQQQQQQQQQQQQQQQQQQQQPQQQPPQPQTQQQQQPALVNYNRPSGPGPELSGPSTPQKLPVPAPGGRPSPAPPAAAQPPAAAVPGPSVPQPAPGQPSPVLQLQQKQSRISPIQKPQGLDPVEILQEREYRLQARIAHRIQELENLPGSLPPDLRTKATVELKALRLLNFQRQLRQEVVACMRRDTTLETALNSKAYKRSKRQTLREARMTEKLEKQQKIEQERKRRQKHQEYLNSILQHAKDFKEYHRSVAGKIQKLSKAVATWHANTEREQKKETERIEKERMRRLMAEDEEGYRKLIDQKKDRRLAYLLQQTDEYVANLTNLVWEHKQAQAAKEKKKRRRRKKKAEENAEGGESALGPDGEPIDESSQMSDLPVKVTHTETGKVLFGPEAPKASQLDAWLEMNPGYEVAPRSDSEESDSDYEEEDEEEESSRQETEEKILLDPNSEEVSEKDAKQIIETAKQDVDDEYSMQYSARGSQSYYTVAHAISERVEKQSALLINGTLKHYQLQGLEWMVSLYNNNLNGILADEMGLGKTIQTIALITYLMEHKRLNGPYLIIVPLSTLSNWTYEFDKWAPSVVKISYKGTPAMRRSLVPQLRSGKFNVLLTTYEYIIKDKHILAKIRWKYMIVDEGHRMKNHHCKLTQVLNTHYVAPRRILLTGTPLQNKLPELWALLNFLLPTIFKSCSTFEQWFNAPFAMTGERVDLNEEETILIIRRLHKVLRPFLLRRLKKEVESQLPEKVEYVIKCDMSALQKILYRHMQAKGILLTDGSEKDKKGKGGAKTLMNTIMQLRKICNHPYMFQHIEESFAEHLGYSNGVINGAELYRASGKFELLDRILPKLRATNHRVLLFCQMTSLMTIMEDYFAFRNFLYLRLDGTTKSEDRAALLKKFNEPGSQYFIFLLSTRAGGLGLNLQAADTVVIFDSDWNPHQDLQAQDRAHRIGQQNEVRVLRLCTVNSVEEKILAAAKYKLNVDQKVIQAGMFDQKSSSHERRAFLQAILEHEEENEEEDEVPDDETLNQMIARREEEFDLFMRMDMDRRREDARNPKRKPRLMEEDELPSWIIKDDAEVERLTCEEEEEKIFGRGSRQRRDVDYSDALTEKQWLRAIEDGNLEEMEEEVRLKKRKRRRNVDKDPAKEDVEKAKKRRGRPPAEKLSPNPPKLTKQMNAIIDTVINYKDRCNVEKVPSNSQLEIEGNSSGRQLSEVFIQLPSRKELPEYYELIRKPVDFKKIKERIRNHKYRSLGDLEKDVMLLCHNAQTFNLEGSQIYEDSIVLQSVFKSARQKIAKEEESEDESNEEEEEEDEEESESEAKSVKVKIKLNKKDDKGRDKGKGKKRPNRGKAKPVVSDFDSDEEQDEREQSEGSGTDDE
# EXPERIMENT_SUMMARY: SMARCA2 Western blot MV4-11 degradation
# Assay type: cell-based
# Design: SMARCA2 and SMARCA4 protein degradation in MV4-11 cells; endogenous in cells; host or cells: MV4-11
# STATED_CONDITIONS: MV4-11, MV4-11 cells, 24 h; read-out: SMARCA2 MSD MV411 degradation 24 h: average Dmax %

Reference set (8 entries):
- COMPOUND: "Cc1ncsc1-c1ccc(CNC(=O)[C@@H]2C[C@@H](O)CN2C(=O)[C@H](c2cc(OCCCN3CCC(c4cnc(N5C6CCC5CN(c5cc(-c7ccccc7O)nnc5N)C6)nc4)CC3)no2)C(C)C)cc1 [I-52]"
  MEASURED_TARGET: "SMARCA2 (Homo sapiens, UniProt P51531)"
  MEASURED_RESULT: "> 90%"
- COMPOUND: "Cc1ncsc1-c1ccc(CNC(=O)[C@@H]2C[C@@H](O)CN2C(=O)[C@@H](c2cc(OCCCCN3CCC(c4cnc(N5C6CCC5CN(c5cc(-c7ccccc7O)nnc5N)C6)nc4)CC3)no2)C(C)C)cc1 [I-55]"
  MEASURED_TARGET: "SMARCA2 (Homo sapiens, UniProt P51531)"
  MEASURED_RESULT: "> 90%"
- COMPOUND: "Cc1ncsc1-c1ccc(CNC(=O)[C@@H]2C[C@@H](O)CN2C(=O)[C@@H](NC(=O)[C@H]2CC3(C2)C[C@H](N2CCC(c4ccc(N5C6CCC5CN(c5cc(-c7ccccc7O)nnc5N)C6)cc4)CC2)C3)C(C)(C)C)cn1 (some centres unmarked) [I-27]"
  MEASURED_TARGET: "SMARCA2 (Homo sapiens, UniProt P51531)"
  MEASURED_RESULT: "< 50%"
- COMPOUND: "Cc1ncsc1-c1ccc(CNC(=O)[C@@H]2C[C@@H](O)CN2C(=O)[C@@H](NC(=O)C2CC3(C2)CC(N2CCC(COc4ccc(N5C6CCC5CN(c5cc(-c7ccccc7O)nnc5N)C6)cn4)CC2)C3)C(C)(C)C)cc1 (some centres unmarked) [I-41]"
  MEASURED_TARGET: "SMARCA2 (Homo sapiens, UniProt P51531)"
  MEASURED_RESULT: "< 50%"
- COMPOUND: "Cc1ncsc1-c1ccc(CNC(=O)[C@@H]2C[C@@H](O)CN2C(=O)C(c2cc([C@H]3CC[C@@H](N4CCC(c5cnc(N6C7CCC6CN(c6cc(-c8ccccc8O)nnc6N)C7)nc5)CC4)CC3)no2)C(C)C)cc1 (some centres unmarked) [I-19]"
  MEASURED_TARGET: "SMARCA2 (Homo sapiens, UniProt P51531)"
  MEASURED_RESULT: "> 90%"
- COMPOUND: "Cc1ncsc1-c1ccc(CNC(=O)[C@@H]2C[C@@H](O)CN2C(=O)[C@@H](NC(=O)[C@H]2CC3(C2)C[C@H](N2CCN(c4cnc(N5C6CCC5CN(c5cc(-c7ccccc7O)nnc5N)C6)nc4)CC2)C3)C(C)(C)C)cc1 (single isomer, unassigned) [I-8]"
  MEASURED_TARGET: "SMARCA2 (Homo sapiens, UniProt P51531)"
  MEASURED_RESULT: "70 to 90%"
- COMPOUND: "Cc1ncsc1-c1ccc(CNC(=O)[C@@H]2C[C@@H](O)CN2C(=O)[C@@H](NC(=O)CN2CC3(C2)CN(C2CCC(c4cnc(N5C6CCC5CN(c5cc(-c7ccccc7O)nnc5N)C6)nc4)CC2)C3)C(C)(C)C)cc1 (some centres unmarked) [I-76]"
  MEASURED_TARGET: "SMARCA2 (Homo sapiens, UniProt P51531)"
  MEASURED_RESULT: "> 90%"
- COMPOUND: "Cc1ncsc1-c1ccc(CNC(=O)[C@@H]2C[C@@H](O)CN2C(=O)[C@H](c2cc(N3CCC(CCN4CCC(c5cnc(N6C7CCC6CN(c6cc(-c8ccccc8O)nnc6N)C7)nc5)CC4)CC3)no2)C(C)C)cc1 [I-63]"
  MEASURED_TARGET: "SMARCA2 (Homo sapiens, UniProt P51531)"
  MEASURED_RESULT: "> 90%"

Consider the compound Cc1ncsc1-c1ccc(CNC(=O)[C@@H]2C[C@@H](O)CN2C(=O)[C@@H](NC(=O)CN2C3CCC2CN([C@H]2CC[C@@H](c4cnc(N5C6CCC5CN(c5cc(-c7ccccc7O)nnc5N)C6)nc4)CC2)C3)C(C)(C)C)cc1 [I-77] and give its measured Dmax. 70 to 90%

Recorded Dmax for Cc1n[nH]c(C)c1-c1ccc(CNC(=O)[C@@H]2C[C@@H](O)CN2C(=O)[C@@H](NC(=O)[C@H]2CC3(C2)C[C@H](N2CCC(c4cnc(N5C6CCC5CN(c5cc(-c7ccccc7O)nnc5N)C6)nc4)CC2)C3)C(C)(C)C)cc1 (some centres unmarked) [I-31] , please? 50 to 70%

If you can, please state the reported Dmax value of Cc1ncsc1-c1ccc(C2(NC(=O)[C@@H]3C[C@@H](O)CN3C(=O)[C@@H](NC(=O)[C@H]3CC4(C3)C[C@H](N3CCC(c5cnc(N6C7CCC6CN(c6cc(-c8ccccc8O)nnc6N)C7)nc5)CC3)C4)C(C)(C)C)CC2)cc1 (single isomer, unassigned) [I-3] . > 90%

Fill blank: measured Dmax of the compound Cc1ncsc1-c1ccc(CNC(=O)[C@@H]2C[C@@H](O)CN2C(=O)C(c2cc(OCCN3CCC(O[C@H]4C[C@H](Oc5cc(N6C7CCC6CN(c6cc(-c8ccccc8O)nnc6N)C7)ccn5)C4)CC3)no2)C(C)C)cc1 (some centres unmarked) [I-22] is ____. 70 to 90%

====

# MEASURED_TARGET: SMARCA2 (Homo sapiens)
# EXPERIMENT_SUMMARY: SMARCA2 Western blot MV4-11 degradation
# Type: cell-based
# Parameters: SMARCA2 and SMARCA4 protein degradation in MV4-11 cells; endogenous in cells; host or cells: MV4-11
# STATED_CONDITIONS: MV4-11 cells, 24 h; read-out: SMARCA2 MSD MV411 degradation 24 h: Mean external-Abs DC50
QUANTITY: DC50

Some entries whose results are on file:
- COMPOUND: "Cc1ncsc1-c1ccc(CNC(=O)[C@@H]2C[C@@H](O)CN2C(=O)[C@@H](NC(=O)CN(C)Cc2cnc(N3C4CCC3CN(c3cc(-c5ccccc5O)nnc3N)C4)nc2)C(C)(C)C)cc1 [I-37]"
  DC50: "< 100 nM"
- COMPOUND: "Cc1ncsc1-c1ccc(CNC(=O)[C@@H]2C[C@@H](O)CN2C(=O)[C@@H](NC(=O)[C@H]2CCC3(CC2)C[C@H](N2CCC(c4cnc(N5C6CCC5CN(c5cc(-c7ccccc7O)nnc5N)C6)nc4)CC2)C3)C(C)(C)C)cc1 (stereo partly shown) [I-43]"
  DC50: "< 100 nM"
- COMPOUND: "Cn1nccc1-c1ccc(CNC(=O)[C@@H]2C[C@@H](O)CN2C(=O)[C@@H](NC(=O)[C@H]2CC3(C2)C[C@H](N2CCC(c4cnc(N5C6CCC5CN(c5cc(-c7ccccc7O)nnc5N)C6)nc4)CC2)C3)C(C)(C)C)cc1 (stereo partly shown) [I-36]"
  DC50: "< 100 nM"

In the following, a different compound is considered.
Given Cc1ncsc1-c1ccc(CNC(=O)[C@@H]2C[C@@H](O)CN2C(=O)[C@@H](NC(=O)[C@H]2CC3(C2)C[C@H](N2CCC(c4ccc(N5C6CCC5CN(c5cc(-c7ccccc7O)nnc5N)C6)cc4)CC2)C3)C(C)(C)C)nc1 (stereo partly shown) [I-23] , state its recorded DC50. 100 to 500 nM
